Where a name gives a salt, the structure may show the parent alone.
The reader will find reported melting point values listed item by item below.

Here is how some molecules turned out for melting point.
CC(C)(C)C(=O)NC1=NN(C(=O)C(C)(C)C)C(CN)(c2ccccc2)S1 (centres unmarked) (as salt: hydrochloride) [Compound j] : 175 to 182 °C
CC(=O)N1N=C(N2CCCC2=O)SC1(CCNS(C)(=O)=O)c1ccccc1 (centres unmarked) [Compound g] : 137 to 140 °C
CC(C)(C)C(=O)N1N=C(N2CCCC2=O)SC1(CCNS(C)(=O)=O)c1ccccc1 (single isomer, unassigned; (-)) [Compound c] : 107 to 110 °C
CCC(=O)N1N=C(N2CCCC2=O)SC1(CCNS(C)(=O)=O)c1ccccc1 (single isomer, unassigned; (-)) [Compound e] : 188 to 191 °C
CC(=O)N1N=C(NC(=O)C(C)(C)C)SC1(CCNS(C)(=O)=O)c1ccccc1 (single isomer, unassigned; (-)) [Compound f] : 187 to 190 °C
CC(=O)N1N=C(N2CCCCC2=O)SC1(CCNS(C)(=O)=O)c1ccccc1 (single isomer, unassigned; (-)) [Compound h] : 169 to 171 °C
CN(C)CCS(=O)(=O)NCC1(c2ccccc2)SC(NC(=O)C(C)(C)C)=NN1C(=O)C(C)(C)C (single isomer, unassigned; (-)) [Compound m] : 101 to 104 °C

Now consider a different molecule.
Could you tell me which melting point is on file for CN(C)CCCS(=O)(=O)NCC1(c2ccccc2)SC(NC(=O)C(C)(C)C)=NN1C(=O)C(C)(C)C (single isomer, unassigned; (-)) [Compound n] ? 92 to 95 °C
